Target: human orexin 2 receptor (hOX2R) (Homo sapiens, UniProt O43614)
Sequence (O43614 1-444): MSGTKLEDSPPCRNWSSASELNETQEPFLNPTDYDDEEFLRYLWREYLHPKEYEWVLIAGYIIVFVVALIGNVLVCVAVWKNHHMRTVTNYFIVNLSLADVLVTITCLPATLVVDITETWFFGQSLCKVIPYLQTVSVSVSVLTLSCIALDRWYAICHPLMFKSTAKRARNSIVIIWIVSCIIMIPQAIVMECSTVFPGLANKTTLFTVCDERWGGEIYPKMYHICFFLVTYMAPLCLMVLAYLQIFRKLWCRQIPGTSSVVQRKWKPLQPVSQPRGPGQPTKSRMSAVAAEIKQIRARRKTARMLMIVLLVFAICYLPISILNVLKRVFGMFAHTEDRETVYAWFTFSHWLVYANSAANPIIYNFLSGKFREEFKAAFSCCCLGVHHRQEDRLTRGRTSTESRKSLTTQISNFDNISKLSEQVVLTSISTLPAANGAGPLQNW
Assay: Measurement of orexin antagonist activity (intracellular Ca2+ fluorescence, FDSS) in CHO cells expressing hOX2R
Settings: CHO cells forcibly expressing hOX2R; ligand (two-amino-acid-substituted human orexin-A) 3 nM; Fluo 4-AM; read-out: IC50 value OX2
pIC50: −log10 of the molar value.
REPORTED_ENDPOINT: pIC50

Use these answered entries as a reference point.
COMPOUND	REPORTED_ENDPOINT	OBS_VALUE
CCN(CCc1ccn(-c2ccc(F)c(F)c2)n1)C(=O)c1ccccc1-n1nccn1 [Example 25]	pIC50	8.48
CCN(CCc1ccn(-c2cccc(C(F)(F)F)n2)n1)C(=O)c1ccccc1-n1nccn1 [Example 24]	pIC50	7.61

A: CCN(CCc1ccn(-c2ccc(F)cn2)n1)C(=O)c1c(F)cccc1-c1ncccn1 [Example 21]
B: CCN(CCc1cc(-c2ccc(F)cn2)on1)C(=O)c1cc(C)ccc1-n1nccn1 [Example 10]
Just curious, which one has the larger pIC50 reading, A or B ? Lab note: record the label of whichever item you select.
B
